Target: T1, human IL-23R endogenously expressed on DB cells (CRL-2289) (human, UniProt Q5VWK5 24-629)
T1 sequence (looked up): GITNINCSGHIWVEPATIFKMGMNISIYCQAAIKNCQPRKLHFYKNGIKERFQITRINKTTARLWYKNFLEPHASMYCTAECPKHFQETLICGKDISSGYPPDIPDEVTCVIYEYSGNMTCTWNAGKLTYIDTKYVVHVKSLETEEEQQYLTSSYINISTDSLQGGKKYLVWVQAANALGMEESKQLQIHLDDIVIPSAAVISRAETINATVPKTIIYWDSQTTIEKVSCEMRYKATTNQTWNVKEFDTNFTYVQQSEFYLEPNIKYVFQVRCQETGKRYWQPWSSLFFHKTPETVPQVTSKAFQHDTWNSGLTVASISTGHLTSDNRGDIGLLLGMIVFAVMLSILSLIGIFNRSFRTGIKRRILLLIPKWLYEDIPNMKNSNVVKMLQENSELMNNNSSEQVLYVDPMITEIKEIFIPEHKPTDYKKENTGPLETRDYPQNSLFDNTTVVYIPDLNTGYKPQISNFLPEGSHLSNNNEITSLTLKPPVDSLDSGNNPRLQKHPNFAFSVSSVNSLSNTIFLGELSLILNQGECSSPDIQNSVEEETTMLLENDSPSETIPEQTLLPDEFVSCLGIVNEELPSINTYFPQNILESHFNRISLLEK
Assay: cell-based or functional assay
*1 amine or outer side, *2 acyl side, *3 side chain or, on linkers, in order; H or OH if unused. Bridges are numbered along the chain shown (N, C = ends). Primed or numbered codes have the meaning given here. Where no end group is shown, it is not given here. [ ]: non-standard residue; d: D form. 4‑Aminomethyl‑phenylacetyl = 4-aminomethyl-phenylacetyl unit, its amine closes the lactam, O=C(Cc1ccc(CN[*:1])cc1)[*:2]; 1,3‑dibromopropan‑2‑one(3) = linker giving 1,3-dithio-propan-2-one bridge -SCH2C(=O)CH2S- between Cys; 2Nal = N[C@@H](Cc1ccc2ccccc2c1)C(=O)O; AEF = NCCOc1ccc(C[C@H](N)C(=O)O)cc1; 3Pal = N[C@@H](Cc1cccnc1)C(=O)O; αMeL = CC(C)C[C@](C)(N)C(=O)O; 3Amb = NCc1cccc(C(=O)O)c1; Dab = NCC[C@H](N)C(=O)O
Catalogue of binders with associated IC50 (pSTAT3)

binder: [3Amb]SCWQC[AEF][2Nal][αMeL]E[Dab][3Pal]-NH2 (lactam (positions not given here); linker 3-6 via 1,3‑dibromopropan‑2‑one(3); not fully specified (bridges); printed as [(3-Aminomethyl)benzoyl](1c)*SC(2a)WQC(2a)[Y(2-aminoethoxy)][2-Nal][2-Me-Leu]E(1c)[Dab][3-(3-Pyridyl)-Ala]-[NH2]) [Compound 148]
display.unit: pM
IC50 (pSTAT3): 86.8
--
binder: [4‑Aminomethyl‑phenylacetyl]SCWQC[AEF][2Nal][αMeL]E[Dab][3Pal]-NH2 (lactam N-10; linker 3-6 via 1,3‑dibromopropan‑2‑one(3)) [Compound 120]
display.unit: pM
IC50 (pSTAT3): 54.2

Each recorded value in this set is attributed to patent US20250154198A1.
